All figures here come from patent US20240158392A1.

Consider the following compounds; for each one, report its pIC50.
molecular target: SIK2 (Homo sapiens, UniProt Q9H0K1); experiment: SIK2 Enzymatic Assay High Version 2 (High ATP); type: biochemical
Sequence (Q9H0K1 whole entry, species assumed): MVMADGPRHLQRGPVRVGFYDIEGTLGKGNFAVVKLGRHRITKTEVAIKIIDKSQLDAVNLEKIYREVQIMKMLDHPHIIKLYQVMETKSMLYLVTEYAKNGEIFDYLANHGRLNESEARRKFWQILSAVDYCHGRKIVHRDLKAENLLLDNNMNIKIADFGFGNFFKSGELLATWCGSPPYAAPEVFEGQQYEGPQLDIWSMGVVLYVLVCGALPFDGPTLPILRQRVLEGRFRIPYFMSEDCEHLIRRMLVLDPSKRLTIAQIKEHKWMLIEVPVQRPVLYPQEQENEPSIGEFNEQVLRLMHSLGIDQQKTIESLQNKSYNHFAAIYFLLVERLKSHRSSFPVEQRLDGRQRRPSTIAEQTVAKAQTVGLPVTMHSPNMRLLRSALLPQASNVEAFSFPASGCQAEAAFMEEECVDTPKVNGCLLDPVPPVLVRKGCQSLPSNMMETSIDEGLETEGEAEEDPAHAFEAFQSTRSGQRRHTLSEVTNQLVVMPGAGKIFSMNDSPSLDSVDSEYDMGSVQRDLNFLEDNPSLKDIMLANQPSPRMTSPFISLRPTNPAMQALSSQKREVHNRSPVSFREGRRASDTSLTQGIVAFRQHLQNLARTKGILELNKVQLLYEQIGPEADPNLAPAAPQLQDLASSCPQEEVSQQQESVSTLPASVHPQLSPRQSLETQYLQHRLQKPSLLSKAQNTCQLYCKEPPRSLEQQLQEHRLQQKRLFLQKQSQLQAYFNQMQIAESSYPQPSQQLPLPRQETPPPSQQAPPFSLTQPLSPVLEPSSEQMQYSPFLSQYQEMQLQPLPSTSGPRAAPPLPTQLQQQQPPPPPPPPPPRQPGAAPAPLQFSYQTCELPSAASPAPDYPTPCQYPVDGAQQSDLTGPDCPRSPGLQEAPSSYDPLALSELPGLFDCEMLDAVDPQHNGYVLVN
Answers are plain numbers, as −log10 of the molar value.

                                   compound                        tested_target  quantity  measurement
0  Cc1cc(-c2ccn3nc(NC(=O)C4CC4)cc3c2)c(O[C@@H]2CC[C@H](O)C2)cn1 (single isomer, unassigned) [Example 180]  SIK2 (Homo sapiens, UniProt Q9H0K1)     pIC50         7.22
1  N#CCN1CC[C@@H](Oc2cnc(C#N)cc2-c2ccn3nc(NC(=O)C4CC4)cc3c2)C1 [Example 113]  SIK2 (Homo sapiens, UniProt Q9H0K1)     pIC50         8.64
2  Cc1cc(-c2ccn3nc(NC(=O)C4CC4)cc3c2)c(OCC2(N)CCCC2)cn1 [Example 155]  SIK2 (Homo sapiens, UniProt Q9H0K1)     pIC50         7.81
3  CCOc1cnc(C)cc1-c1ccn2nc(NC(=O)C3CC3)cc2c1 [Example 752]  SIK2 (Homo sapiens, UniProt Q9H0K1)     pIC50         6.09
4  CCNC(=O)c1cnc(Nc2cc3cc(-c4cc(C)ncc4O[C@H]4C[C@H]5COC[C@@H](C4)N5)ccn3n2)cn1 [Example 386]  SIK2 (Homo sapiens, UniProt Q9H0K1)     pIC50         8.88
5  CN1CC[C@@H](COc2ccc(C#N)cc2-c2ccn3nc(NC(=O)C4CC4)cc3c2)C1 [Example 100]  SIK2 (Homo sapiens, UniProt Q9H0K1)     pIC50         6.98
6  Cc1cc(-c2ccn3nc(NC(=O)C4CC4)cc3c2)c(OC[C@H]2CCN2CCF)cn1 [Example 529]  SIK2 (Homo sapiens, UniProt Q9H0K1)     pIC50         9.02
7  O=C(Nc1cc2cc(-c3cc(Cl)ncc3O[C@@H]3C[C@H]4COC[C@@H](C3)N4)ccn2n1)C1CC1 [Example 492]  SIK2 (Homo sapiens, UniProt Q9H0K1)     pIC50         7.29
8  N#Cc1cc(-c2ccn3nc(NC(=O)C4CC4)cc3c2)c(OC[C@H]2C[C@@H](O)C2)cn1 [Example 68]  SIK2 (Homo sapiens, UniProt Q9H0K1)     pIC50         7.62
9  CN1CC[C@@H](Oc2cnc(C#N)cc2-c2ccn3nc(NC(=O)C4CC4)cc3c2)C[C@H]1C(F)(F)F (single isomer, unassigned) [Example 29]  SIK2 (Homo sapiens, UniProt Q9H0K1)     pIC50         6.84

Take each entry in turn and give its pIC50.
1. CN1CC[C@@H](Oc2cnc(C#N)cc2-c2ccn3nc(NC(=O)C4CC4)cc3c2)C(F)(F)C1 [Example 11]
2. N#Cc1cc(-c2ccn3nc(NC(=O)C4CC4)cc3c2)c(O[C@H]2CCNC2)cn1 [Example 6]
3. Cc1cc(-c2ccn3nc(Nc4cnn(C)c4)cc3c2)c(O[C@H]2C[C@H]3COC[C@@H](C2)N3)cn1 [Example 123]
4. N#Cc1cc(-c2ccn3nc(NC(=O)C4CC4)cc3c2)c(O[C@H]2CC[C@@H](O)CC2)cn1 [Example 86]

Outgoing:
[7.50, 7.95, 9.03, 8.56]

* * *

I'd appreciate it if you could supply IC50 values for the items below.
target: SIK2 (Homo sapiens); assay: SIK2 Enzymatic Assay Version 1 (ADP Glo); format: biochemical; details: enzyme 0.6 nM, 160 μM ATP and 140 μM HDAC5tide (each 2× final concentration); 30 minutes pre-incubation, 4 hours; ADPGlo luminescence; read-out: SIK2 ADP Glo IC50 (μM) (Test Example 1)
Answers are plain numbers, in µM.

Illustrative cases are given below, each with its answer.
In [3]: df
Out[3]:
                                chem_smiles  measurement
0     COc1ccccc1-c1ccn2nc(NC(=O)C3CC3)cc2c1        0.417
1  CN1CCO[C@@H](COc2cnc(C#N)cc2-c2ccn3nc(NC(=O)C4CC4)cc3c2)C1      0.00321
2  Cn1ccc(Nc2cc3cc(-c4cc(C#N)ccc4OC[C@H]4CNCCO4)ccn3n2)n1      0.00389

Batch: IC50 for all items listed.
1. N#Cc1cc(-c2ccn3nc(NC(=O)C4CC4)cc3c2)c(OC[C@H]2CC[C@H](N)CC2)cn1
2. CN1CC[C@@H](COc2ccc(C#N)cc2-c2ccn3nc(NC(=O)C4CC4)cc3c2)C1

Outgoing:
[0.00095, 0.00573]

# batch: return IC50 for each of the 3 compounds below
1. COc1cnccc1-c1ccn2nc(NC(=O)C3CC3)cc2c1
2. N#Cc1cc(-c2ccn3nc(NC(=O)C4CC4)cc3c2)c(OC[C@@H]2CNCCO2)cn1
3. CN1CC(COc2cnc(C#N)cc2-c2ccn3nc(NC(=O)C4CC4)cc3c2)C1

Outgoing:
1: 0.0179; 2: 0.000783; 3: 0.0034

* * *

molecular target: SIK2 (Homo sapiens); test: SIK2 Enzymatic Assay High Version 2 (High ATP); type: biochemical; conditions: enzyme 6 nM, 6 mM ATP and 400 μM HDAC5tide (each 2× final concentration); 30 minutes pre-incubation, 2 hours; ADP-Glo Max luminescence; read-out: SIK2 high ATP IC50 (μM) (Test Example 2)
1 if IC50 is below 0.02 µM. -1 if not; exact matches included in -1.

Worked examples, 3 compounds total:
                                   compound        tested_target  label_value
0  CC(C)(C#N)COc1cnc(OC(F)F)cc1-c1ccn2nc(Nc3cnc(C(C)(C)O)cn3)cc2c1 [Example 713]  SIK2 (Homo sapiens)            1
1  Cc1cc(-c2ccn3nc(Nc4cc(C)nc(C)n4)cc3c2)c(O[C@H]2CC[C@H](S(C)(=O)=O)CC2)cn1 [Example 266]  SIK2 (Homo sapiens)            1
2  Cc1cc(-c2ccn3nc(NC(=O)C4CC4)cc3c2)c(OC[C@]2(F)CCN(C)C2)cn1 (single isomer, unassigned) [Example 519]  SIK2 (Homo sapiens)           -1

Incoming: Hello, is IC50 of the following compound strictly smaller than 0.02 µM? CCn1nc(Nc2cc3cc(-c4cc(C)ncc4OCC(C)(C)O)ccn3n2)cc(C)c1=O [Example 247]
Outgoing: 1

Incoming: Input CC#Cc1cc(-c2ccn3nc(NC(=O)C4CC4)cc3c2)c(O[C@H]2C[C@H](N)C2)cn1 [Example 435]
Outgoing: 1

Incoming: Here is the next compound: Cc1cc(-c2ccn3nc(NC(=O)C4CC4)cc3c2)c(OC2CCC(=O)CC2)cn1 [Example 186]
Outgoing: 1

Incoming: Same question, Cn1cnc(Nc2cc3cc(-c4cc(OC(F)F)ncc4OCC(C)(C)C#N)ccn3n2)n1 [Example 699] this time
Outgoing: 1

Incoming: Quick one: Cc1cc(Nc2cc3cc(-c4cc(CF)ncc4OCC(C)(C)O)ccn3n2)nc(C)n1 [Example 327]
Outgoing: -1

Incoming: And what about the compound CC#Cc1cc(-c2ccn3nc(NC(=O)C4CC4)cc3c2)c(OC[C@@H]2CNCCO2)cn1 [Example 443] ?
Outgoing: 1

Incoming: Next: CC(C)(C#N)COc1cnc(OC(F)F)cc1-c1ccn2nc(Nc3cc4c(cn3)CCNC4)cc2c1 [Example 718]
Outgoing: 1

Incoming: What about CNc1nc(C)cc(Nc2cc3cc(-c4cc(C)ncc4OCC(C)(C)O)ccn3n2)n1 [Example 228] ?
Outgoing: 1

Incoming: Also Cc1cc(-c2ccn3nc(NC(=O)C4CC4)cc3c2)c(OC2CCC(O)(C(C)C)CC2)cn1 (centres unmarked) [Example 196] ?
Outgoing: 1

Incoming: Further, for Cc1cc(-c2ccn3nc(Nc4cc(C)nc(C)n4)cc3c2)c(OC[C@@]2(O)CCOC2)cn1 (single isomer, unassigned) [Example 203] ?
Outgoing: -1

Incoming: Queued: Cc1cc(-c2ccn3nc(Nc4nccc(C)c4F)cc3c2)c(OCC(C)(C)O)cn1 [Example 652]
Outgoing: -1

Incoming: Next compound: Cc1cc(-c2ccn3nc(Nc4cc(C)nc(C)n4)cc3c2)c(OCc2cccc(O)c2)cn1 [Example 272]
Outgoing: 1

Incoming: Now consider Cc1cc(Nc2cc3cc(-c4cc(OC(F)F)ncc4OCC4(C#N)CC4)ccn3n2)nc(C)n1 [Example 720] and answer again.
Outgoing: 1

Incoming: Cc1cc(Nc2cc3cc(-c4cc(OCC(F)(F)F)ncc4OC[C@H]4OCC[C@@H]4O)ccn3n2)nc(C)n1 [Example 499] ?
Outgoing: 1

Incoming: And for Cn1nc(Nc2cc3cc(-c4cc(OCC(F)F)ncc4OCC(C)(C)C#N)ccn3n2)ccc1=O [Example 697] ?
Outgoing: -1

Incoming: Again, but for Cc1cc(Nc2cc3cc(-c4cc(OC(F)F)ncc4OC[C@H]4CC(=O)NC4(C)C)ccn3n2)nc(C)n1 (single isomer, unassigned) [Example 732]
Outgoing: 1

Incoming: Consider next the compound Cc1cc(-c2ccn3nc(Nc4ccc5cc[nH]c5n4)cc3c2)c(O[C@H]2CC[C@H](O)CC2)cn1 [Example 239] in the same way.
Outgoing: 1
